Each entry below carries its measured pKi, system: Coagulation factor X (Homo sapiens, UniProt P00742).
Sequence (P00742 41-179 limits assumed): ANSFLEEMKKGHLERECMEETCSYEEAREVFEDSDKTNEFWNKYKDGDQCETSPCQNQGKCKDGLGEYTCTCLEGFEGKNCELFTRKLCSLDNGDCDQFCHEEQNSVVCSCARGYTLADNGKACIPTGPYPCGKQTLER
Sequence (P00742 235-488 limits assumed): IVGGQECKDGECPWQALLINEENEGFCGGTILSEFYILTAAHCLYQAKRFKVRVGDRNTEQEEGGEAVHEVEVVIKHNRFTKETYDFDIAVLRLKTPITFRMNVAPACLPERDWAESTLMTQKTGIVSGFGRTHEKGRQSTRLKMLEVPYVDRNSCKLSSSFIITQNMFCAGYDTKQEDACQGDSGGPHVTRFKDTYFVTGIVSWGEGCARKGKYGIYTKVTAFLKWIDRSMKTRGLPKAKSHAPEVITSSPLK
In textbook form, pKi equals minus log to base ten of the concentration in mol/L.

// below: answered compounds
ENTRY_SMILES	EXPERIMENTAL_VALUE
Cc1nn(-c2ccc3onc(N)c3c2)c2c(=O)n(-c3ccc(-c4ccccc4CN4CC[C@@H](O)C4)cc3)c(C)nc12	9.43
Cc1nn(-c2ccc3onc(N)c3c2)c2c(=O)n(-c3ccc(-c4ccccc4CN4CC[C@H](O)C4)cc3)cnc12	9.30
Cc1nn(-c2ccc3onc(N)c3c2)c2c(=O)n(-c3ccc(-c4ccccc4CN(C)C(C)C)cc3)c(C)nc12	9.46

Below: the item to evaluate.
Using the record for Nc1nc2c(C(F)(F)F)nn(-c3ccc4onc(N)c4c3)c2c(O)c1-c1ccc(-c2ccccc2CN2CCC(O)CC2)cc1 , report its pKi. 9.11
